Tested on: MS2 coat protein
Assay: apparent KD of MS2 coat protein; designed switch direction (-1 OFF switch, 1 ON switch): 1; higher = weaker reporter binding
Conditions: input ligand: microRNA oligo, concentration not stated
Observed property: apparent KD of MS2 coat protein (nM)
Answers are plain numbers, in nM.

Examples with their reported apparent KD of MS2 coat protein follow.
# Macromolecule sequence, Observed measurement
data = [
    ("GGUGGGUUACUACCAACACAUGAGGAUCACCCAUGUUUUGGGAAGGAUAUGGUACCUAUUUGGUACCAGAAGGUCCAGUUAAUG [salish99_SSNG3_r04_702] (Eterna round: R96, puzzle: Same State NG 3)", 29.5),
    ("GCGAAAGCGGUAGGAUAUCUAGGAUAUGGGAAAGACUAAGUCUGUAGGUCACCUAACCCAGAAGGAGAGAAGGACAGGGAAACC [pwkr ssNG2 2FMN + F9.34] (Eterna round: R96, puzzle: Same State NG 2)", 28.9),
    ("UAAUUAAGUCAAGGAUAUCACGUCGAUUAGACGUGAGAAGGUGACCAAUACAUGAGGAUCACCCAUGUAAUACAUGAAUAAUUA [SSNG1/12-B2] (Eterna round: R96, puzzle: Same State NG 1)", 53.2),
    ("AAAAAACAUGAGGAUCACCCAUGUCGAAAGACAUGAGGAUAUGUGUGGAAACCAUACUAUACAGAAGGCAUAAAAA [SS1 - 1009] (Eterna round: R96, puzzle: Same State 1)", 137),
    ("CGGAAACGUCAAGGAUAUGCUACCGUUUCGGUAGCAGAAGGUGAUCACAUGAGGAUCACCCAUGUAUGCAUGCGUGAGCGUGCU [JL SSNG1 3.56] (Eterna round: R96, puzzle: Same State NG 1)", 187),
]

I have 5 sequences here; please give me apparent KD of MS2 coat protein for each one.
1. AGCCGAGACGCAGGAUAUAGAUAUCUACAUGAGGAUCACCCAUGUAGCAACACGUGGUAGUGAUUCUAGAAGGGUGCUCGGCGC [Omei SS(NG)2 Cv7] (Eterna round: R96, puzzle: Same State NG 2)
2. UGUUGUAUUACAGGAUAUCUAUUGUAUUUAUUUAGAGAAGGGUAUUCACAUGAGGAUCACCCAUGUAUAUACGAGGAAGUUGUG [JMF's solution 73] (Eterna round: R96, puzzle: Same State NG 1)
3. GAUCGUUUGAUAGGAUAUCGCUAUACAUGAGGAUCACCCAUGUUUACCACGCUGGUUUUUCGUACCGAGAAGGAUUCUGAUGAU [JL JR sub007 mod 5] (Eterna round: R96, puzzle: Same State NG 2)
4. GCGAGCGUACUUGCUACAUGAGGAUCACCCAUGUUAACUGGACAGGAUAUGGUACCGUUUCGGUACCAGAAGGGUUCAUCAUGU [JL SSNG3 3.68] (Eterna round: R96, puzzle: Same State NG 3)
5. GUUACAUGAGGAUCACCCAUGUAUGUGUGGGAGUAAGUGUCUUAGGAUAUCUAUGAUUUAAUUCAAGAGAAGGAAGAUUGUUGU [JMF's solution 85] (Eterna round: R96, puzzle: Same State NG 3)

Data returned:
[322, 46.7, 24.4, 245, 70.7]

Batch of 2 sequences: report apparent KD of MS2 coat protein for each.
1. AAUUAAGAUCAAGGAUAUCACGUCGAAUAGACGUGAGAAGGUGAUAAUUACAUGAGGAUCACCCAUGUAUAACAUGAAUUAAUU [SSNG1/9-B1] (Eterna round: R96, puzzle: Same State NG 1)
2. CCGGGUAAUGGAGGAUAUGGAGCCUUAUUGGCUCCAGAAGGCUAACAUGAGGAUCACCCAUGUAGUCCGGCGGUCAAUAGACCG [Eli NG1ss - 66] (Eterna round: R96, puzzle: Same State NG 1)

Data returned:
1: 24.8; 2: 13.2

====

I'd be grateful if you could share measured apparent KD of MS2 coat protein for these entries.
Test system: MS2 coat protein
Test: apparent KD of MS2 coat protein, switch ON state; designed switch direction (-1 OFF switch, 1 ON switch): -1; higher = weaker reporter binding
Settings: FMN input: 0 or 200 uM; Eterna round: R93 (includes R88 designs)
Numbers only, in nM.

Some sequences with recorded apparent KD of MS2 coat protein:
# Macromolecule sequence, Observed measurement
rows = [
    ("AAAACGUGAGGAUAUGCACCAAAAAAGGAAAAACGGGUACGACAUGAGGAUCACCCAUGUAGAAGGCACGAAAA [Frodo Flailing 9 - Jieux - Exclusion 2]", 40.8),
    ("GAAAACAGAGGAUAUACGGGAUUGACACGAAAAGUGCAAAAACAUGAGGAUCACCCAUGUAGAAGGCUGAAGAA [Meechl MS2... 60% 2]", 31.5),
]

Please state, for each entry, its recorded apparent KD of MS2 coat protein.
1. AAAAAACAUGAGGAUCACCCAUGUAAGGAUAUGCAAGCAAGAAGAAAGAACAGAAAAAGCAGAAGGUACACACA [Amethyst 73]
2. AACAGUACAGGAUAUACAUGAGGAUCACCCAUGUGAAAAUUAAGUGGCGUACCACAGUGUAGAAGGGUACUGGA [Moding Maslow Revisited (73) 25]
3. CUCAAGUCAGGAUAUAUAAGAAAAGAAGAGAAAGAAAAGAAAUAGAAGGGACAUGAGGAUCACCCAUGUAAGAA [EteRNA is fun!]
4. AAGAAGCGAGGAUAUACAUGAAAGAAAGAAAAGAAAAGAAAACAUGAGGAUCACCCAUGUAGAAGGCGCAAGAA [EteRNA is fun!]
5. AGCUAGUCAGGAUAUACGAACAUGUCAAAAGACGUGAGGGAACAUGAGGAUCACCCAUGUAGAAGGGACUAGCA [Moving G segment in JL's topscorer (74%)]

Data returned:
[22.4, 87.9, 34.5, 21.4, 36.6]

====

Test system: MS2 coat protein
Assay: apparent KD of MS2 coat protein; designed switch direction (-1 OFF switch, 1 ON switch): 1; higher = weaker reporter binding
Settings: Eterna round: R95; input ligand: microRNA oligo, concentration not stated
Observed property: apparent KD of MS2 coat protein (µM)
One number for each entry, in µM.

For orientation, consider the following solved cases.
# Macromolecule sequence, Target system, Observed measurement
records = [
    ("CGGGUACAUGAGGAUCACCCAUGUGGGAGGGAUGCAGGAUAUGUGGGAGGAGGGUAUGAAACAGAAGGGCAAGGAG [JR_SS!_Sub012] (puzzle: Same State 1)", "MS2 coat protein", 0.0489),
    ("AGUGAACAUGAGGAUCACCCAUGUGAGAGAAGUGUAGGAUAUGUGAGAGGCGGAGGAGGGACAGAAGGACAUGGAG [JR_SS!_Sub075] (puzzle: Same State 1)", "MS2 coat protein", 0.042),
]

Here's the next entry for you.
Data request: // apparent KD of MS2 coat protein lookup, key: AUAAAACAUGAGGAUCACCCAUGUCAACAUAGUCGAGGAUAUGGGCAAAUAAAAUAAGAACCAGAAGGCGAAUAAU [salish99_ss1_r3_040] (puzzle: Same State 1)
Data returned: 0.714

====

Tested on: K4 kissing-loop RNA reporter;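 note: bound reporter read as fluorescence of individual clusters on recovered sequencing chips by microscopy, with normalized cluster intensities fitted with a binding model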
Experiment: apparent KD of K4 kissing-loop reporter; higher = weaker reporter binding
Details: Eterna round: R107; input ligand: tryptophan 2.4 mM
Observed property: apparent KD of K4 kissing-loop reporter (nM)
Numbers only, in nM.

Could you report apparent KD of K4 kissing-loop reporter for every entry in the following list?
1. CGCGCGGGUUUGAGAGGGUUCGCGCGAAGUGAGGAUAUUUAGGGAGAAAGAAGGCACUAUAAAAUAUAGUGAUGUUAUAUAAGGG [SSFMNA.H]
2. AAGUGUUCUAGUGAUACCAGACAUUUCAAUUACAUUAAUAUAGCUAAGUGAUGUUUAGCAGUCCCUUGGCAGCACUAUUUCACUA [JR_SSTheophyB_Sub016]
3. GCUACUGCUGAAGGAUAUAUCAAUAGAGUGAUGUUCUAUGUCGGUAGCCCGAAAGGGCUACCGACGAUAGAAGGUCAGCAGUAGC
4. AAAGUCGGCUGUGAUACCAGUCAUAUAACAACAUAUCGCAGUGAUGUUGCGAGAUAGGAUGACCCUUGGCAGCACUCAGUACGAU [Same State Theophylline B GF 6]
5. GUUGUCUACCAGAGGUGAUGUAUAGUAUCGCGAGGACCGGUACGGCCGCCACUCGUGAAGAGAAAGGAGUGAUGUUCCGUAAUGG [C10]
6. AAGGGCGGGACUUCCUCGCCGGAUAGAGAUACCAGCCCUGCAAAGGGCCCUUGGCAGCUCACUGACCUCAGUGAUGUUGAGGUUC [Maanveri]
7. AUGUUUUAUAAACUCAUGGUUUCGACAGAUACCAGCUUCGAGAGGAGCCCUUGGCAGCUGCAUGAGUGAUGUUCAUGUACGAAGA [KL-XTheoA7]
8. AGGAUCCGUCGACAAAAGUCGACAUAAUCCGAGGAUAUGACGAAAGUCAGAAGGUGGACAUAAGUCCAGUGAUGUUGGAGGAUCC [FmnA 17 #SwitchBubble #K4Late]

Data returned:
[342, 131, 983, 338, 118, 223, 265, 193]

For each of the sequences below, state apparent KD of K4 kissing-loop reporter.
1. CGAGUCCUGAGGAGUGAUGUUCCUCGGCCACGAGGACCGGUACGGCCGCCACUCGUUACUCGAGCUUAGUAGCUAGCACUAAGCC [Zaussora]
2. UAAUAUCCGUCGGCCGCCACUCACCAGUGAUGUUGGAGGAGUGAUGUUCCACGAGUGAUGUUCGAGAGGACCGGGACGGACGAUG [6th]

Data returned:
[109, 103]

Provide apparent KD of K4 kissing-loop reporter for all items below, preserving their order.
1. UGCCGGGCUGUACGUUACUUAAAUCGCGAUACCAGCGAUACAAUCCGCCCUUGGCAGCGCAGUGAUGUUGCGCGGUCAUUACGGG [theeternabot_exclusion_KL_Theo_A_27]
2. GCCUAGCAGGGAAGGAGCGCCAGGAGAAGAAAUGGAGAGAGUUGAGUGAUGUUCAAAUGGUGGCAGGUAGGUCGCCCUGCUAGGC [KL-SSArg B12]
3. AGGCACGAGCAAGGAUAUCGAGUAGAGUGAUGUUCUGCCUGGGUUGGCUCGAAAGGGCCUUCCCAGCGAGAAGGUGCUCGUGCCU [#2 Same State - FMN A Attempt #14 (HarryS)]
4. CUUGAUGUGUCGGCCGCCACUGGUAUAGGCGGACUAUAACGACAUGAGUGAUGUUCAUGUUCGUCUAGGACCGGGACACAUUGUA [Tryp B SS t4]
5. UUAUUAAUCGCAGAUACCAGUCCAGAAUGAAUACUAUAGUGAUGUUAUAAUAAAGGGAAGGACCCUUGGCAGCUGUAAUAUAUUU [AstrosSsTheB#3]
6. UCCUAGGUUCGUCGGCGAAAGCCCUGCGAAGGAGCGUGCGAAAGCACAGGUAGGUCGCGCAGUGAUGUUGCACCUAGGUAAUAAA [#SwitchBubble 23 #K4Late]

Data returned:
1: 91.4; 2: 274; 3: 619; 4: 111; 5: 280; 6: 781
